attribute.measured: melting point

Noted for CC1(C)CC(CN2C(=O)C=CC2=O)C(C)(C)N1O (stereo not given) : its melting point reads 148 to 150 °C

Sample `CC(C)(C)c1cc(C(C)(C)C)c(O)cc1O` ; melting point observed: 120 to 121 °C

Entry `O=S(=O)(Cl)Cc1ccc(F)cc1` ; melting point = 61 to 63 °C

response.value for `CCOC(=O)c1cc2cc(OC)ccc2o1` (field: melting point) = 59 to 61 °C

Record `C[C@@]12CCC=C1[C@@H]1CC[C@H]3CC(=O)CC[C@]3(C)[C@H]1CC2` . Reported melting point: 115 to 117 °C

Documented melting point of `NC(=O)Cc1ccc(O)cc1` : 176 to 180 °C

The compound listed as `O=C(O)c1cccc(O)c1[N+](=O)[O-]` has a reported melting point of 179 °C

The reported value for `NC1CCCCCCCCCCC1` in terms of melting point is 28 to 30 °C

// sample `O=C(c1ccc(O)cc1)c1ccc(O)cc1O` , its melting point was 197 to 198 °C

compound `COc1ccc(F)c(F)c1C#N` , melting point observed: 81 °C

Record summary for `O=C(O)c1ccc(-n2ccc(C(F)(F)F)n2)cc1` : reported melting point = 189 to 190 °C

Entry `CNc1ccc(C(=O)O)cc1` ; melting point = 160 to 163 °C

Looking up `C=CC(=O)OCCN(C)C` , I see its melting point listed as -60 °C

Field melting point (entry `N#CCc1csc2ccccc12` ) reads 64 °C

Value of measured melting point for the entry `C/C(CCc1oc2ccc(C)cc2c1-c1ccc(C)o1)=N/O` : 103 to 104 °C
